Biological target: human ether-à-go-go-related gene (hERG) potassium channel (human, UniProt Q12809);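 also: peak tail current of the secondary pulse compared with the same well before compound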
Sequence (Q12809 whole entry, looked up): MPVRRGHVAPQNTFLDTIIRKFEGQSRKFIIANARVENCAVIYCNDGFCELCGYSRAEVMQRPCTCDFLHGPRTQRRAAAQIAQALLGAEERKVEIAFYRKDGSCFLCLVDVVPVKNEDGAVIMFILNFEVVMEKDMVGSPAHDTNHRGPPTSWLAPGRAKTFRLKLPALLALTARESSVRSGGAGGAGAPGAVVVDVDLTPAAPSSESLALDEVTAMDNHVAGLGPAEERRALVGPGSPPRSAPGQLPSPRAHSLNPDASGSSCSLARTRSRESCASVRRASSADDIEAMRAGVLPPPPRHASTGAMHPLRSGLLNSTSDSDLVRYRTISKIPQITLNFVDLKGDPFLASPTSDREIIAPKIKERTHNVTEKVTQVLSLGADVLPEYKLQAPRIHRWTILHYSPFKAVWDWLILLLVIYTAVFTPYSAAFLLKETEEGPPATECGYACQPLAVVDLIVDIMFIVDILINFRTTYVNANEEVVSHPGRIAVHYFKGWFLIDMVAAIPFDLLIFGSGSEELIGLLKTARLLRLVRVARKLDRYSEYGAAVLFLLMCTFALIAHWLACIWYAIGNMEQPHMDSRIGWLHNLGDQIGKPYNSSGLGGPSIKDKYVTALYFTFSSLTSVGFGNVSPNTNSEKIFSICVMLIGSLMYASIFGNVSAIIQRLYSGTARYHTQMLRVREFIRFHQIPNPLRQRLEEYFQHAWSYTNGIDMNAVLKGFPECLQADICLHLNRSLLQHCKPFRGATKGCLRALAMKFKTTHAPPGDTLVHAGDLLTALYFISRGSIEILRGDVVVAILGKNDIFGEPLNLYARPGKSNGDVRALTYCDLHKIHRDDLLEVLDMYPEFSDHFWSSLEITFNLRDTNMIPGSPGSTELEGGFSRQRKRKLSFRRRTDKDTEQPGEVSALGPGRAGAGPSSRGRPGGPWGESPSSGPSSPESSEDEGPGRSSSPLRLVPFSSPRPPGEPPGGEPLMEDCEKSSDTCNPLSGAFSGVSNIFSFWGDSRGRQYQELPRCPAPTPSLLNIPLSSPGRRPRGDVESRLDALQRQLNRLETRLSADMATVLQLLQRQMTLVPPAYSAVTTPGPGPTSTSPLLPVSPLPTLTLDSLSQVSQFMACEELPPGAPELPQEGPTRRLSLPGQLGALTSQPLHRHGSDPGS
Experiment: primary screen, population patch clamp on CHO cells stably expressing hERG; higher = less effect of the substance
Protocol: Briefly, Chinese hamster ovary (CHO) cells stably expressing the hERG channel were dislodged from tissue culture flasks and dispensed into PPC plates. […] During the recording, background leak currents were estimated by a 100 ms step to -80 mV from an initial holding potential of -70 mV and subtracted from the subsequent current measurement. The campaign was conducted in two phases using slight differences in recording protocol. […]
The whole screen tested about 310,000 compounds, of which about 14,000 (4.5%) showed an effect of 50% or more. The effect is printed as a negative number. Shown is part of a subset that was picked to be rich in strong results.
Label scheme for hERG current change (%, negative = inhibition) at 10uM: lower than -20% is not satisfied, -20% and above is satisfied.

*Q* Check if hERG current change (%, negative = inhibition) at 10uM >= -20% (inclusive). Item: `Clc1ccccc1-c1nnc(-c2ccccc2Cl)o1`
*A* satisfied

*Q* Check if hERG current change (%, negative = inhibition) at 10uM >= -20% (inclusive). Item: `CCN(CC)CCOC(=O)/C=C/c1ccccc1.Cl`
*A* satisfied

*Q* Check if hERG current change (%, negative = inhibition) at 10uM >= -20% (inclusive). Item: `O=C(CN1CCCCCC1)Nc1ccc(Br)cc1`
*A* not satisfied

*Q* Check if hERG current change (%, negative = inhibition) at 10uM >= -20% (inclusive). Item: O=C(CSc1ccccc1)N1CCCC(N2CCN(c3cccc(Cl)c3)CC2)C1 (stereo not drawn)
*A* not satisfied

*Q* Check if hERG current change (%, negative = inhibition) at 10uM >= -20% (inclusive). Item: `O=C(CN1CCCCCC1)Nc1ccc(S(=O)(=O)N2CCCCC2)cc1`
*A* not satisfied

Further cases:
*Q* Check if hERG current change (%, negative = inhibition) at 10uM >= -20% (inclusive). Item: `Cl.O=C(CN1CCN(C2CCCCC2)CC1)Nc1ccc(Br)cc1`
*A* not satisfied

*Q* Check if hERG current change (%, negative = inhibition) at 10uM >= -20% (inclusive). Item: `O=C(CSc1ccccc1)N1CCN(c2ccc(F)cc2)CC1`
*A* satisfied

*Q* Check if hERG current change (%, negative = inhibition) at 10uM >= -20% (inclusive). Item: `CCOC(=O)c1nc(C)sc1-c1ccnn1S(=O)(=O)c1cccc(Cl)c1`
*A* not satisfied

*Q* Check if hERG current change (%, negative = inhibition) at 10uM >= -20% (inclusive). Item: O=C(CSc1nnc(Nc2ccccc2)s1)NCC1CCCO1 (stereo not drawn)
*A* satisfied

*Q* Check if hERG current change (%, negative = inhibition) at 10uM >= -20% (inclusive). Item: CCOC(=O)c1sc(/S(C)=N\S(=O)(=O)c2cccc(Cl)c2)c2c1CCC=C2 (stereo not drawn)
*A* not satisfied

*Q* Check if hERG current change (%, negative = inhibition) at 10uM >= -20% (inclusive). Item: COc1cc2c(cc1OC)C(C)N(CCc1ccc(Cl)cc1)CC2.O=C(O)/C=C\C(=O)O (stereo not drawn)
*A* not satisfied

*Q* Check if hERG current change (%, negative = inhibition) at 10uM >= -20% (inclusive). Item: `CCOC(=O)C1=C(C)Nc2ccccc2N/C1=N\S(=O)(=O)c1cccc(Cl)c1`
*A* satisfied

----------
Molecular target: human ether-à-go-go-related gene (hERG) potassium channel (human);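 also: peak tail current of the secondary pulse compared with the same well before compound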
Assay: primary screen, population patch clamp on CHO cells stably expressing hERG; higher = less effect of the substance
In all, about 310,000 compounds went through this assay and about 14,000 (4.5%) showed an effect of 50% or more. Effects have a minus sign here. The list comes from a sample in which strong results are over-represented; it also holds close analogues and randomly drawn compounds.
MEASURED_PROPERTY: hERG current change (%, negative = inhibition) at 10uM (%)
API: value field is a number in %; no unit string.

# count of solved cases: 3
*Q* // Input: Nc1ncc(CN2CCCC(C(=O)Nc3ccc(-c4ccco4)cc3)C2)cn1 (stereo not shown) . Output its hERG current change (%, negative = inhibition) at 10uM only.
*A* -17.8

*Q* // Input: `NC(=O)Nc1ccc(C(=O)OCC(=O)N2CCc3ccccc3C2)cc1` . Output its hERG current change (%, negative = inhibition) at 10uM only.
*A* 5.29

*Q* // Input: COc1cccc(-c2ccc(NC(=O)C3CCCN(Cc4cnn(C(C)C)c4)C3)cc2)c1 (stereo not shown) . Output its hERG current change (%, negative = inhibition) at 10uM only.
*A* -79.7

Further cases:
*Q* // Input: `O=C(COC(=O)/C=C/c1ccc(Cl)cc1Cl)Nc1ccc2c(c1)OCCO2` . Output its hERG current change (%, negative = inhibition) at 10uM only.
*A* 18.5

*Q* // Input: Cc1ncc(CN2CCCC(C(=O)Nc3ccc(-c4cccc(F)c4)cc3)C2)cn1 (stereo not shown) . Output its hERG current change (%, negative = inhibition) at 10uM only.
*A* -73.2

----------
Target: human ether-à-go-go-related gene (hERG) potassium channel (human);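 also: peak tail current of the secondary pulse compared with the same well before compound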
Experiment: primary screen, population patch clamp on CHO cells stably expressing hERG; higher = less effect of the substance
In all, about 310,000 compounds went through this assay and about 14,000 (4.5%) showed an effect of 50% or more. The effect is printed as a negative number. The sample as a whole holds a higher share of strong results than the screen did.
MEASURED_PROPERTY: hERG current change (%, negative = inhibition) at 10uM (%)
API: value field is a number in %; no unit string.

# count of solved cases: 4
*Q* // Input: CC(C)N1CCN(Cc2ccc3nsnc3c2)CC1CCO (stereo not shown) . Output its hERG current change (%, negative = inhibition) at 10uM only.
*A* 8.66

*Q* // Input: `CN(Cc1ccccc1)C(=O)COC(=O)C1CCN(S(=O)(=O)c2cccs2)CC1` . Output its hERG current change (%, negative = inhibition) at 10uM only.
*A* -53.4

*Q* // Input: `O=C(O)C(=O)/C(=C\c1ccccc1)c1ccc2ccccc2n1` . Output its hERG current change (%, negative = inhibition) at 10uM only.
*A* 13.9

*Q* // Input: `CCN(C(=O)COC(=O)C1CCN(S(=O)(=O)c2cccs2)CC1)c1ccccc1` . Output its hERG current change (%, negative = inhibition) at 10uM only.
*A* 22

Next molecule, please.
*Q* // Input: `Oc1ccc(Cc2ncc(C(F)(F)F)cc2Cl)cc1` . Output its hERG current change (%, negative = inhibition) at 10uM only.
*A* -15.4

----------
Target: human ether-à-go-go-related gene (hERG) potassium channel (human, UniProt Q12809);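 also: peak tail current of the secondary pulse compared with the same well before compound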
Assay: primary screen, population patch clamp on CHO cells stably expressing hERG; higher = less effect of the substance
Screen size: about 310,000 compounds; about 14,000 (4.5%) showed an effect of 50% or more. Effects have a minus sign here. This is one part of a sample in which strong results are shown more often than they occur.
MEASURED_PROPERTY: hERG current change (%, negative = inhibition) at 10uM (%)
API: value field is a number in %; no unit string.

*Q* // Input: `COc1ccc(CC(=O)Nc2cc(NC(=O)Cc3ccc(OC)c(OC)c3)cc(C(=O)O)c2)cc1OC` . Output its hERG current change (%, negative = inhibition) at 10uM only.
*A* 14.3

*Q* // Input: Cc1ccc(CCNC(=O)C23CN(Cc4ccccc4)CC2C(c2cccc([N+](=O)[O-])c2)=NO3)cc1 (centres unmarked) . Output its hERG current change (%, negative = inhibition) at 10uM only.
*A* -14.8

*Q* // Input: O=C(NCCCCc1ccccc1)C12CN(Cc3ccccc3)CC1C(c1cccc([N+](=O)[O-])c1)=NO2 (centres unmarked) . Output its hERG current change (%, negative = inhibition) at 10uM only.
*A* -6.27

*Q* // Input: `O=c1cc(CN2CCc3ccccc32)c2ccc(O)cc2o1` . Output its hERG current change (%, negative = inhibition) at 10uM only.
*A* -0.218

*Q* // Input: `CCOCc1nnc(NC(=O)CSc2ccc(C)cc2)s1` . Output its hERG current change (%, negative = inhibition) at 10uM only.
*A* 6.61

*Q* // Input: `COc1ccc(S(=O)(=O)NCc2cccnc2)cc1OC` . Output its hERG current change (%, negative = inhibition) at 10uM only.
*A* 17.1

*Q* // Input: `CN1/C(=C\C=Nc2cc(S(=O)(=O)N3CCOCC3)ccc2N2CCOCC2)C(C)(C)c2ccccc21` . Output its hERG current change (%, negative = inhibition) at 10uM only.
*A* -71

*Q* // Input: `Cc1ccccc1N=CC=C1OC(C)(C)C(C)(C)O1` . Output its hERG current change (%, negative = inhibition) at 10uM only.
*A* -1.54

*Q* // Input: CC1(c2ccc(OC(F)F)cc2)NC(=O)N(CC(=O)N2c3ccccc3NC(=O)C2(C)C)C1=O (centres unmarked) . Output its hERG current change (%, negative = inhibition) at 10uM only.
*A* -6.78
